EXPERIMENTAL TARGET: UniProt P43403
Sequence (P43403 whole entry): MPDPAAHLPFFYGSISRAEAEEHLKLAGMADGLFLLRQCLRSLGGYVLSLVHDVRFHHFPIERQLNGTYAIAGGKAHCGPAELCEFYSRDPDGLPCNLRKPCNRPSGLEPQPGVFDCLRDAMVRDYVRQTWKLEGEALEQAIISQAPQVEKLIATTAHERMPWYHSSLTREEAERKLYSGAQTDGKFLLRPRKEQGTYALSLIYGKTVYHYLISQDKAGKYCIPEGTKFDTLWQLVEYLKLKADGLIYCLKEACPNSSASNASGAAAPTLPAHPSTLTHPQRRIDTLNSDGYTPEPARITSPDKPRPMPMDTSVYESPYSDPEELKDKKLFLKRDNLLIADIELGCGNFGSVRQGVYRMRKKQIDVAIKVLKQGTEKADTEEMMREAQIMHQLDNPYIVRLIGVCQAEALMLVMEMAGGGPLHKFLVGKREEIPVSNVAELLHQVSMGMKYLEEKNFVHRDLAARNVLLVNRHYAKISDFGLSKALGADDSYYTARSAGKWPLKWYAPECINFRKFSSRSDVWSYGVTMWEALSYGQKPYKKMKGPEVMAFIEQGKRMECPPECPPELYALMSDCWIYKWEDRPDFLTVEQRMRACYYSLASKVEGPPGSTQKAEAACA
MEASUREMENT TYPE: IC50

Report its IC50 with UniProt P43403 as the test system: O=C(Cc1ccc2ccccc2c1)Nc1cc(C2CC2)n[nH]1 > 10 µM

====

EXPERIMENTAL TARGET: Casein kinase II (Homo sapiens, UniProt P19784+P67870+P68400)
Sequence (P67870 whole entry): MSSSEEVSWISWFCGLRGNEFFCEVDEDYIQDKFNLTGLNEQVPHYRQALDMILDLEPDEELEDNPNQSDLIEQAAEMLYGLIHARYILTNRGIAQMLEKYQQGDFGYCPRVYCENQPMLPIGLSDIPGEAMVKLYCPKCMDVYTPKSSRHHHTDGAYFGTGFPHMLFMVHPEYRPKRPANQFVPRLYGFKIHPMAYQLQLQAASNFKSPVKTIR
Sequence (P68400 whole entry): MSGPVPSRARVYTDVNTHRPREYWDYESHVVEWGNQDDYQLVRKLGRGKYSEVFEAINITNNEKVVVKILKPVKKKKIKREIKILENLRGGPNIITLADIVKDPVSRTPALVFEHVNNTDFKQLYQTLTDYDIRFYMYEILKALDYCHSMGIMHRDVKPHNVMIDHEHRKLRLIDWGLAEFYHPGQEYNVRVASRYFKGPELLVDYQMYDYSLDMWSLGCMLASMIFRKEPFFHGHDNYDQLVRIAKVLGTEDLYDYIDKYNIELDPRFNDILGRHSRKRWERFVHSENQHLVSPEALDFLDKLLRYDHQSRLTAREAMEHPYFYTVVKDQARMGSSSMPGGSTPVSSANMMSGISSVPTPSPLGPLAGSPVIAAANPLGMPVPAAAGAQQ
Sequence (P19784 whole entry): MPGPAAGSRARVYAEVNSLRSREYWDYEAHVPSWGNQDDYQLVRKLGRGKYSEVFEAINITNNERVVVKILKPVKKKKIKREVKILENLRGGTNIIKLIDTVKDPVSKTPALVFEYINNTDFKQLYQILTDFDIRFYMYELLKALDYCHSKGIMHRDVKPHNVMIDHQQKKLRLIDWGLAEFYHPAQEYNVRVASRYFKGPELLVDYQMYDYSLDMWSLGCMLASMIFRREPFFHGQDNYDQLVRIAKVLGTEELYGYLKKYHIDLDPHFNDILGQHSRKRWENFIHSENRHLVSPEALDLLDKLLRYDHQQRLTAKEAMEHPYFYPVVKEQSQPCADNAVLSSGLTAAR
ASSAY NOTES: Inhibition of Casein kinase 2
Format: protein-complex assay
MEASUREMENT TYPE: IC50

Report its IC50 with Casein kinase II (Homo sapiens, UniProt P19784+P67870+P68400) as the test system: O=C(Cc1ccc2ccccc2c1)Nc1cc(C2CC2)n[nH]1 > 10 µM

====

ASSAY NOTES: Steady-state volume of distribution was evaluated for the compound after i.v. administration at a dose of 5 mg/kg was measured in rats
Format: ADME, organism-based
Parameters: dose 5 mg/kg, route intravenous
CONDITION DETAILS: rat, in vivo, iv, read-out: Vss
MEASUREMENT TYPE: Vd (L/kg)
Report only the number, with the unit L/kg understood.

Supply measured Vd of O=C(Cc1ccc2ccccc2c1)Nc1cc(C2CC2)n[nH]1 in your reply. 1.06

====

EXPERIMENTAL TARGET: Inhibitor of nuclear factor kappa-B kinase subunit epsilon (Homo sapiens, UniProt Q14164)
Sequence (Q14164 whole entry): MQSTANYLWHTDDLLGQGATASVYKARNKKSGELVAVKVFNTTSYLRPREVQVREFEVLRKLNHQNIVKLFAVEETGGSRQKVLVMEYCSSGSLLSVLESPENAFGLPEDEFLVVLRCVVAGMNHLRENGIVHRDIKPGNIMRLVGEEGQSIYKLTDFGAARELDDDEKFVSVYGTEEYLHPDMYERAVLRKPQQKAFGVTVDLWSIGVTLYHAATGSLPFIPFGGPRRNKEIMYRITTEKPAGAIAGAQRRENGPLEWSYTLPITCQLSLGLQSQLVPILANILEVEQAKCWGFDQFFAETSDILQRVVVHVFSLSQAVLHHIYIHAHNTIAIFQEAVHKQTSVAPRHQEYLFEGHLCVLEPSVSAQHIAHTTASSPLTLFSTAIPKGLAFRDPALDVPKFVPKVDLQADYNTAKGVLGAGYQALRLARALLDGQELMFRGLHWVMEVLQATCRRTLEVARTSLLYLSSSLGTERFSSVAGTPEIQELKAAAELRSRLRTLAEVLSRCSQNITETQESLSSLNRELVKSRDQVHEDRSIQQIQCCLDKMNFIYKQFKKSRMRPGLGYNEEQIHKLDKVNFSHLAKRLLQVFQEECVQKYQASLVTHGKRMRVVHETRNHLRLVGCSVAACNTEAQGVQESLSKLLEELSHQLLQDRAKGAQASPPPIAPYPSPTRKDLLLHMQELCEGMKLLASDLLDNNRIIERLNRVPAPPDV
ASSAY NOTES: Inhibition of IKKi (IKK epsilon) kinase activity
pIC50: −log10 of the molar value.
MEASUREMENT TYPE: pIC50

Supply measured pIC50 of O=C(Cc1ccc2ccccc2c1)Nc1cc(C2CC2)n[nH]1 in your reply. < 5.00

====

EXPERIMENTAL TARGET: Cyclin-dependent kinase 2/cyclin A (Homo sapiens)
ASSAY NOTES: In vitro inhibitory concentration against cyclin-dependent kinase 2-cyclin A complex using ATP/P33gamma-ATP mix as radioligand
MEASUREMENT TYPE: log10 IC50 (log10 of the value in nM)
Answers are given as log10 of IC50 in nM.

Sample answers from the record:
COc1cccc(C(=O)Nc2cc(C3CC3)n[nH]2)c1 | 2.78
O=C(Cc1ccc(-c2ccc(C(=O)O)cc2)cc1)Nc1cc(C2CC2)[nH]n1 | 1.04
CCCc1cc(NC(=O)c2ccc(Br)cc2)n[nH]1 | 2.81
O=C(Cc1ccc(-c2cccc(F)c2)cc1)Nc1cc(C2CC2)[nH]n1 | 0.60

Field: next molecule
Supply measured log10 IC50 of CC(C)c1cc(NC(=O)c2ccc(Br)cc2)n[nH]1 in your reply. 2.30
